test system: human blood platelets; test: In vitro inhibition of ADP-induced human platelet aggregation in platelet-rich plasma (aggregometer method of Born); conditions: Homo sapiens, Platelet, read-out: IC50 vs ADP in human PRP, human PRP, 3 min preincubation at about 37° C., final ADP 5.86 mM (so in the source)
Structures can show the parent of a compound that is named as a salt.
Reported values of log10 of IC50 for individual entries
Lab note - IC50 converted to log10 from values in µg/mL.

# example entries with known answers
| COMPOUND | log10 of IC50 |
| --- | --- |
| Cl.Cl.O=c1[nH]c2cc3cc(OCCCS(=O)(=O)N4CCN(CCC5CCCCC5)CC4)ccc3nc2[nH]1 [Compound 10j] | 0.08 |
| Cl.Cl.O=c1[nH]c2cc3cc(OCCCS(=O)(=O)N4CCN(Cc5ccccc5)CC4)ccc3nc2[nH]1 [Compound 10c] | -1.41 |
| COc1ccc(CN2CCN(S(=O)(=O)CCCOc3ccc4nc5[nH]c(=O)[nH]c5cc4c3)CC2)cc1 [Compound 10f, dihydrochloride] | -0.57 |
| CCC(CC)CN1CCN(S(=O)(=O)CCCOc2ccc3nc4[nH]c(=O)[nH]c4cc3c2)CC1 [Compound 10l, dihydrochloride] | -1.05 |
| Cl.Cl.O=c1[nH]c2cc3cc(OCCCS(=O)(=O)N4CCN(c5nc6ccccc6o5)CC4)ccc3nc2[nH]1 [Compound 10h] | 0.15 |

[ask] Field request: log10 of IC50 | item: Cl.Cl.O=c1[nH]c2cc3cc(OCCCS(=O)(=O)N4CCN(CC5CCCCC5)CC4)ccc3nc2[nH]1 [Compound 10g]
[reply] -1.19

[ask] Entry under review: Cl.Cl.O=c1[nH]c2cc3cc(OCCCS(=O)(=O)N4CCN(Cc5ccc(F)cc5)CC4)ccc3nc2[nH]1 [Compound 10d] . Reported log10 of IC50?
[reply] -0.80

[ask] Entry O=c1[nH]c2cc3cc(OCCCS(=O)(=O)N4CCN(CCc5ccccc5)CC4)ccc3nc2[nH]1 [Compound 10k, dihydrochloride] : reported log10 of IC50 = ?
[reply] -0.22

[ask] For Cl.Cl.O=c1[nH]c2cc3cc(OCCCS(=O)(=O)N4CCN(Cc5cccc(C(F)(F)F)c5)CC4)ccc3nc2[nH]1 [Compound 10m] , what is its reported log10 of IC50?
[reply] -0.70

[ask] Quick one: log10 of IC50 of Cl.Cl.O=c1[nH]c2cc3cc(OCCCS(=O)(=O)N4CCN(Cc5ccc(Cl)cc5)CC4)ccc3nc2[nH]1 [Compound 10e] ?
[reply] -0.49

[ask] Report log10 of IC50 for O=c1[nH]c2cc3cc(OCCCS(=O)(=O)N4CCNCC4)ccc3nc2[nH]1 [Compound 8] please.
[reply] 0.86

[ask] Given the entry O=c1[nH]c2cc3cc(OCCCS(=O)(=O)N4CCN(Cc5ccccc5)CC4)ccc3nc2[nH]1 [Compound 9c] , report its measured log10 of IC50.
[reply] -1.23

[ask] Fill blank: measured log10 of IC50 of the compound O=CN1CCN(S(=O)(=O)CCCOc2ccc3nc4[nH]c(=O)[nH]c4cc3c2)CC1 [Compound 7] is ____.
[reply] 0.75

[ask] Could you share which log10 of IC50 value was measured for Cl.O=c1[nH]c2cc3cc(OCCCS(=O)(=O)N4CCN(c5nc6ccccc6s5)CC4)ccc3nc2[nH]1 [Compound 10i] ?
[reply] 0.45
